Biological target: T1, cynomolgus BLyS (full length, arginine to histidine at position 132) on CHO-K1 cells (cynomolgus, UniProt Q9Y275 1-285 (human entry))
T1 construct: also called cyno BLyS; CHO-K1 cynoBLyS
T1 chain: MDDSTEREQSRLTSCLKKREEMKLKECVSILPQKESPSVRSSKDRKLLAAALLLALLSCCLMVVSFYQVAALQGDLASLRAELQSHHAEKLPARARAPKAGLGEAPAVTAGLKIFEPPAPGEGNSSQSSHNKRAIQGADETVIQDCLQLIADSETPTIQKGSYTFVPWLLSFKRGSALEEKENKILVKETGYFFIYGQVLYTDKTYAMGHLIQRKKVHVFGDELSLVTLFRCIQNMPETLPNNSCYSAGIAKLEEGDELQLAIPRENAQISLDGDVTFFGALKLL
Assay: flow cytometry, CHO-K1 cynoBLyS cells, antibody 0.534 nM
Observable: MFI (MFI)
Could you give me the number in MFI? Just the number is fine.

Consider the reported MFI for these binders:
{"columns": ["Binder", "MFI / MFI"],
 "data": [
  ["L9G7 (antibody, V domains shown, From a human naive scFv phage library; also called human BLyS antibody L9G7) VH: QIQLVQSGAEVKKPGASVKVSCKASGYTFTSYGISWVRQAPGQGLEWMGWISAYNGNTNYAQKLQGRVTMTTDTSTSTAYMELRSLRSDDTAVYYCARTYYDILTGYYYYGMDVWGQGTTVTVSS VL: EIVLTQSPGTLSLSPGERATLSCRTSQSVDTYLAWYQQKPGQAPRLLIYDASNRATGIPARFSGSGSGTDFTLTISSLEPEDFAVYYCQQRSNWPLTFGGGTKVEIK", 1010],
  ["93C6F10D3 (antibody, V domains shown, Mouse hybridoma monoclonal antibody purified on Protein G) VH: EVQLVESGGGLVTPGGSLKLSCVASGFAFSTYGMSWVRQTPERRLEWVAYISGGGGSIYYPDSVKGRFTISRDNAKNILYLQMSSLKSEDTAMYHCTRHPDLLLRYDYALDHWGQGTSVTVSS VL: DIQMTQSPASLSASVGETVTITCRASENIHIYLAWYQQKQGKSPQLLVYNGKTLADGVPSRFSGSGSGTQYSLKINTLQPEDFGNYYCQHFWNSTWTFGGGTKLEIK", 706],
  ["97A3C2H4 (antibody, V domains shown, Mouse hybridoma monoclonal antibody purified on Protein G) VH: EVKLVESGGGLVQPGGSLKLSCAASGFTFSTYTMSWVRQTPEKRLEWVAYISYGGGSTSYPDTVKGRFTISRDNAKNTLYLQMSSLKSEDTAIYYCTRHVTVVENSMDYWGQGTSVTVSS VL: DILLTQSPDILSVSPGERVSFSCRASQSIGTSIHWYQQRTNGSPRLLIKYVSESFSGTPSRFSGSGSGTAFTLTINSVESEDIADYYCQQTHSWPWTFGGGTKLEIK", 682]
]}

Query block: Give me measured MFI, please, for this binder: 2-1G11 (antibody, V domains shown, From a human naive scFv phage library; also called human BLyS antibody 2-1G11) VH: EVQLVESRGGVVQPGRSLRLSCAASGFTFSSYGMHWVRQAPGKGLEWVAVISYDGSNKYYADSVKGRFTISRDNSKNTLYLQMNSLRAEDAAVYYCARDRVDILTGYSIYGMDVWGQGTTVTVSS VL: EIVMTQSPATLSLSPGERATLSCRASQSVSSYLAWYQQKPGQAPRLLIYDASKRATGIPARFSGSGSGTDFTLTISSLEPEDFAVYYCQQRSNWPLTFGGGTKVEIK
Result block: 1400

Query block: Give me measured MFI, please, for this binder: 78C11D2D12 (antibody, V domains shown, Mouse hybridoma monoclonal antibody purified on Protein G) VH: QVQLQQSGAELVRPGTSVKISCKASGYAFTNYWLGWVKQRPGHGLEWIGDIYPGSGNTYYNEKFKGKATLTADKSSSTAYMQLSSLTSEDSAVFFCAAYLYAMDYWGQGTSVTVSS VL: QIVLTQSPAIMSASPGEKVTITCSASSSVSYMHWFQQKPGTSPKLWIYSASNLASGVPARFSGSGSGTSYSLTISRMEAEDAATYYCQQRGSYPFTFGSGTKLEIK
Result block: 480

Data origin, for the record: patent US20210347873A1
